- Species: Homo sapiens
- test.description: Inhibition of TCEP-treated human SOD1 A4V mutant aggregation at 50 uM measured after 24 hrs by thioflavin-T fluorescence assay relative to control
observed.property: inhibition (%)
Express the result in % but write the number alone.

[
  {
    "compound": "COc1cc(/C=C/C(=O)CC(=O)/C=C/c2ccc(O)c(OC)c2)ccc1O [CURCUMIN]",
    "units.text": "%",
    "endpoint.value": 58.7
  },
  {
    "compound": "CCn1c2ccccc2c2cc(NC(=O)NNC(=O)Nc3ccc([N+](=O)[O-])cc3)ccc21",
    "units.text": "%",
    "endpoint.value": 55.3
  }
]

Could you now consider this next compound?
[in] Recorded inhibition of CCn1c2ccccc2c2cc(NC(=O)NNC(=O)Nc3ccc(OC)cc3)ccc21 , please.
[out] 40.6

---

- test.description: Inhibition of TCEP-treated human SOD1 G85R mutant aggregation measured after 24 hrs by thioflavin-T fluorescence assay
observed.property: pIC50
pIC50 (log units): -log10 of the concentration in mol/L.

// below: answered compounds
[
  {
    "chemical.string": "COc1cc(/C=C/C(=O)CC(=O)/C=C/c2ccc(O)c(OC)c2)ccc1O",
    "pIC50": 4.19
  },
  {
    "chemical.string": "CCn1c2ccccc2c2cc(NC(=O)NNC(=S)Nc3ccc(F)cc3)ccc21",
    "pIC50": 4.63
  }
]

Could you now consider this next compound?
[in] Recorded pIC50 of CCn1c2ccccc2c2cc(NC(=O)NNC(=S)Nc3ccccc3)ccc21 , please.
[out] 4.50

---

- Species: Homo sapiens
- test.description: Inhibition of TCEP-treated human SOD1 G85R mutant aggregation at 50 uM measured after 24 hrs by thioflavin-T fluorescence assay relative to control
This listing pairs compounds with measured inhibition.

// below: answered compounds
[
  {
    "chemical.string": "CCn1c2ccccc2c2cc(NC(=O)NNC(=S)Nc3ccc(F)cc3)ccc21",
    "observed.property": "inhibition",
    "endpoint.value": "76.8%"
  },
  {
    "chemical.string": "CCn1c2ccccc2c2cc(NC(=O)NNC(=O)Nc3ccc([N+](=O)[O-])cc3)ccc21",
    "observed.property": "inhibition",
    "endpoint.value": "43.1%"
  },
  {
    "chemical.string": "CCn1c2ccccc2c2cc(NC(=O)NNC(=S)Nc3ccc([N+](=O)[O-])cc3)ccc21",
    "observed.property": "inhibition",
    "endpoint.value": "64.4%"
  },
  {
    "chemical.string": "COc1cc(/C=C/C(=O)CC(=O)/C=C/c2ccc(O)c(OC)c2)ccc1O",
    "observed.property": "inhibition",
    "endpoint.value": "42.8%"
  },
  {
    "chemical.string": "CCn1c2ccccc2c2cc(NC(=O)NNC(=S)Nc3ccc(OC)cc3)ccc21",
    "observed.property": "inhibition",
    "endpoint.value": "70.6%"
  }
]

[in] Recorded inhibition of CCn1c2ccccc2c2cc(NC(=O)NNC(=O)NCCc3ccccc3)ccc21 , please.
[out] 70%

[in] Recorded inhibition of CCn1c2ccccc2c2cc(NC(=O)NNC(=O)Nc3ccc(Cl)cc3)ccc21 , please.
[out] 63.3%

---

- Species: Homo sapiens
- test.description: Inhibition of TCEP-treated human SOD1 G85R mutant aggregation at 50 uM measured after 24 hrs by thioflavin-T fluorescence assay relative to control
This listing pairs compounds with measured inhibition.
Express the result in % but write the number alone.

// below: answered compounds
[
  {
    "chemical.string": "CCn1c2ccccc2c2cc(NC(=O)NNC(=S)NCCc3ccccc3)ccc21",
    "observed.property": "inhibition",
    "endpoint.value": 66.1
  },
  {
    "chemical.string": "CCn1c2ccccc2c2cc(NC(=O)NNC(=S)Nc3ccccc3)ccc21",
    "observed.property": "inhibition",
    "endpoint.value": 74.8
  },
  {
    "chemical.string": "CCn1c2ccccc2c2cc(NC(=O)NNC(=S)Nc3ccc(OC(F)(F)F)cc3)ccc21",
    "observed.property": "inhibition",
    "endpoint.value": 63.2
  },
  {
    "chemical.string": "CCn1c2ccccc2c2cc(NC(=O)NNC(=O)Nc3ccc(OC(F)(F)F)cc3)ccc21",
    "observed.property": "inhibition",
    "endpoint.value": 63.8
  },
  {
    "chemical.string": "CCn1c2ccccc2c2cc(NC(=O)NNC(=O)Nc3ccc(OC)cc3)ccc21",
    "observed.property": "inhibition",
    "endpoint.value": 38.2
  },
  {
    "chemical.string": "CCn1c2ccccc2c2cc(NC(=O)NNC(=O)Nc3ccccc3)ccc21",
    "observed.property": "inhibition",
    "endpoint.value": 65.9
  },
  {
    "chemical.string": "CCn1c2ccccc2c2cc(NC(=O)NNC(=O)Nc3ccc(F)cc3)ccc21",
    "observed.property": "inhibition",
    "endpoint.value": 43.4
  },
  {
    "chemical.string": "CCn1c2ccccc2c2cc(NC(=O)NNC(=S)NCc3ccccc3)ccc21",
    "observed.property": "inhibition",
    "endpoint.value": 56.4
  }
]

[in] Recorded inhibition of CCn1c2ccccc2c2cc(NC(=O)NNC(=S)Nc3ccc(Cl)cc3)ccc21 , please.
[out] 58.3

[in] Recorded inhibition of CCn1c2ccccc2c2cc(NC(=O)NNC(=O)NCc3ccccc3)ccc21 , please.
[out] 70.7
